- ASSAY SYSTEM: T315I mutant of human Abl (Homo sapiens, UniProt P00519, T315I)
- PROTOCOL SUMMARY: Mutant Abl kinase (T315I) activity inhibition assay
- EXPERIMENTAL SETUP: at Upstate Cell Signaling Solutions
pKi: −log10 of the molar value.
MEASURE: pKi

Prompt: Assign pKi to the following record: Cc1cc(Nc2cc(N3CCN(C4CCN(C)CC4)CC3)nc(Sc3ccc4nc(C(F)(F)F)ccc4c3)n2)[nH]n1
Response: > 7.60
